Data provenance is the domain aggregation screens of Martell et al. (2025).

test: soluble fraction after stress (log2 fold change); higher = more stays soluble; pooled small domains, quantitative proteomics; conditions: stress: pH 4
Assay Endpoint: soluble fraction (log2)
Reply: number alone, nothing else.

Past entries and their recorded results:
Any idea what soluble fraction (log2) was measured for HMEANAYFDAYPDVAAEWARLSGSDEGKATLSAIGVTTPQQFAQYHYTTFGSKENRNAPVGYTP ?
-0.47

Item HMRTMFGQRLRLARKRAGLSMQALADRVTPSVSAQAISKYEADQMMPSSSVLVGLGKALGVSLDFLVGGQ has what recorded soluble fraction (log2)?
-0.238

Requested field: soluble fraction (log2). Item: HMEQFRENIVRIYMEIDDYENGAKFLEMGNNRDASFYELAGDFYKYFGENELANENYDLAISA
-1.39

I have this sequence here, HMVLVGERRQKILEVVSSGKAVTVEELSRILHVSPSTVRRDLRFLESRGLLYRTHGGAMPPV , and I need its recorded soluble fraction (log2).
-0.0726

What measured soluble fraction (log2) goes with HMAVWRIKVNYIPGYGVNIWSSYKNGHFTGKRAMHGETYEVLETKKDQDGNTWYKLDDHQWIEGRYAINAK ?
-0.88

What value of soluble fraction (log2) has been recorded for this entry: HMRIPANIAEDIKKLQKKEHHLHHHLGRDPFDDELAKELEWDTEQVSEIRQMIKNPELLEELLEAEREEE
-1.2

Please report the recorded soluble fraction (log2) for HMDDPTVILFDPKNGQRKIVKWKAGLTLYSARRSAGISSAAEATIQRAGKSLSGRTATALEPGDVIRW .
0.203

Entry HMDNPVPVIITDQNFQPQLWKNVGVPTDTLFHELSAANQRKLENLMKTMIQTPLTDNGKISGYAFYSK : reported soluble fraction (log2) = ?
0.152

Next:
Can you share its soluble fraction (log2)? I mean this sequence: HMKMLSIQRREAIRALLLEKESITIAEVMEKFQISVETARRDFDALADEGFLNKVYGGATLKK
-1.24

I would be grateful if you could share the reported soluble fraction (log2) for HMNGKTIEVPDITEKSIAEAQLILNQKKLRYNVVDSTRFDPAYLPFSVLTQEPEAGDEVKKNRTIYITLNP .
-0.0716

Dear colleague, I am looking for the recorded soluble fraction (log2) of the following sequence: HMQLTPAQHAILAHALEHSDGKIVWFPDNIKGGARKKVLDGLLNRALITTDGTDWFVAAEGYDAMGR
0.063

Entry under review: HMNPIEAQIEELKNKDQKTAYQALKHLLAISETRAEVSYYFDRFVALLQDPQSYVRTRGLLLIGA . Reported soluble fraction (log2)?
0.0533

Param item = HMYVQDPVDRLVLESALRLLREQEREIIFLHLVAGLKHREIAGLLHLPLSTVLSGYRRALTKMKSYLEE ; retrieve measured soluble fraction (log2).
0.0239

====

# key: entry, value: soluble fraction (log2)
assay: soluble fraction after stress (log2 fold change); higher = more stays soluble; pooled small domains, quantitative proteomics; settings: stress: pH 4
A bare number is all that is needed in reply.

I'd like to know its soluble fraction (log2). The sequence in question is HMDIKEIIKNRRIELGLTLKEVATAVGVSEGTVSRWESGNITNMKRNKIAALAKTLQIPPTTI
0.0875

// lookup soluble fraction (log2) for HMSRVSVDGEEVNFEGEIPDDPSRIYELLMGALSEQSRVVVKFFVDGKDALLDEGFPSRYQMIEAESV
-0.733

Recorded soluble fraction (log2) for HMGKPVTMELLIPYSQGSLVHRISEAGEVAKTEYQNDGTYMQVTFTPSAKDHALMQEVASYRI , please?
0.0901

Entry HMQAPVDPIVLGKMGSSYGIRGWLRVFSSTEDAESIFDYQPWFIQKAGQWQQVQLESWKHHNQDMIIKLN : reported soluble fraction (log2) = ?
0.179

Look at this sequence and give its reported soluble fraction (log2). HMTSPKSRIVSALLASPSRPEELAMRLGEDILTLMRTLTDFEASGIIQRLPDGRYTPTREYHLGLVDK
-0.534

# input for lookup
I'd like to know its soluble fraction (log2). The sequence in question is HMNMGKRFKELRKERKFTQQQLADRIGLAPSAISSYESGARYPSYDVLIKYSKIFHVTTDYLLG
0.148

====

assay: soluble fraction after stress (log2 fold change); higher = more stays soluble; pooled small domains, quantitative proteomics; settings: stress: pH 4
Binary classification by soluble fraction (log2), with -0.4 as an inclusive lower bound for True; all other cases are False.

State whether the measured soluble fraction (log2) reaches -0.4, counting equality as reaching it, for HMSVTYRYSYVYNGNTYSDGWSVRRAIENNENKRFGPEPSDLDHEAQKQARVTFWAEHGVEYKEQEVV
False

Given HMNIILFLDELHRLLSDLPPEERNQAIKYYEDYFEDAGPENEQAILKELGSPQELANQIKATT , state whether its soluble fraction (log2) is at least -0.4.
False

For this sequence, is measured soluble fraction (log2) -0.4 or higher? HMEAQAHYDAIYKAHPNADSIAQSAEFKAWVDAQPSVVRNAYWQLFDPKEGGTAEQIVEVFDAFVKSS
False

Further cases:
Please check the record HMLLTHEEQIVKRGWQAPVGPFAILDSRAEAMHGDLEMLRGDREAAEQHFRRAWQIIGPIVEQ and state if its soluble fraction (log2) is at or above -0.4.
True

Is reported soluble fraction (log2) greater than or equal to -0.4 here: HMWMEKEELLWNDIIRGGVERGELREDTDIQEAAALFRQVFIGLAYQMSFSDGLDVGILRKRFHHIYGLLT
False

hey, is soluble fraction (log2) for this one >= -0.4? HMAGLYSLLLVELPMERLPEDLPAIKAAWLKTGDTEAFKVALQAMSSRGWTIAVPGKHRDTQMTQL
True

Given HMNVPFGFDEVNGKLVKNEEEQAIISEIKSLKNKGLSLRKIAEALNGRGIATKNGKAWTAVQIQRIA , state whether its soluble fraction (log2) is at least -0.4.
True

Does HMSELADDPVYTALEKAADKAGLQLTVRILNDLADAVLKRGKKKLTAAQAGKVIARAESELAKSRID have a reported soluble fraction (log2) of at least -0.4?
True

Check this sequence for soluble fraction (log2) at or above -0.4: HMVFLPDEIFRLKVIKAGEGPEQGVGYLDDGTMVVIEGARDRIGDELEVRVTSTLQTNAGKMIFTKFE
False

# check: soluble fraction (log2) of HMAVTFPYTAYATDAVRLRERPSSSADVLAVIRKGDAVLVTGTDGNYAIVDYEGKRGYVVSSFIAT is greater than or equal to -0.4
True

Given the entry HMLPLLAFDEKLNRLGYGGGFYDRTLASLAHKGNTITAIGIAYESQKMDKVPTGYFDRPLDGVLTPSGLIM , answer whether its soluble fraction (log2) meets or surpasses -0.4.
True

====

experiment: soluble fraction after stress (log2 fold change); higher = more stays soluble; pooled small domains, quantitative proteomics; details: stress: pH 4
This listing pairs sequences with measured soluble fraction (log2).
A bare number is all that is needed in reply.

Examples with answers:
I would be grateful if you could share the reported soluble fraction (log2) for HMSVLEHVSGNVRRLRLQAGLSQEALARAASVSRRMLVGIESGDVNVSLSTLDRIAAALGVLFPDLVQAP .
-0.392

Dear colleague, I am looking for the recorded soluble fraction (log2) of the following sequence: HMPSDTNLIGKTGIAYTTLRPGGTALIDDRKVDVVADSEYIEKDKKIKVIRVEGIKVVVTAVK
0.194

Please give the measured soluble fraction (log2) for this sequence: HMVISAKRMQDRRDSILDAAREAFARAGFEGTSIADIARRAGVSDGLVYRYFASKRDLLNAVLTA
0.216

---
What value of measured soluble fraction (log2) is listed for HMALENTDLYAHLRLSHTASVPEIQAALSARVKHMPLQTWLLARKWLLHPRLRERYDGMWSVRFGA ?
-0.136

====

test: soluble fraction after stress (log2 fold change); higher = more stays soluble; pooled small domains, quantitative proteomics; conditions: stress: pH 4
Entry class follows soluble fraction (log2): lower band: < -0.3; central band: ≥ -0.3 and < 0.1; upper band: ≥ 0.1

Some solved entries appear below for comparison.
// bin(item) where item = HMEKTEQMQVILDYIARYGEINNEKVQEILGVKRTRAYTILKQMVENGFVTTNGRGEEKKYYSIR
lower band

Returns: class label. Input: HMGTVQSVDRALLLLSEIGREPGGLVDLSTRVRLATSTTGRILATLEHAGAVVRGDDGIYHIGPLVHGMVS
central band

Class for HMRGLVPEIVGTLEGEIRAGTLAVGQKLPTEAEIMARFDVSRTVVREALSRLQASDLVETRHGIGTFVSAR ?
upper band

# bin lookup: classify HMENNIRLSVPDTESGQRIDSYLAEQIPGLTRSAVQNLLAEQAVTIAGKAVKKNYKLLGGEDILVQLPEVR by its soluble fraction (log2)
upper band

More entries:
Form field 'band' for HMPDLSAEERNIVEALQKSNDLQVNLIAVKTGMDMGTLSATLFGLEMKGLVKLMAGGTYHLI
upper band

Each sequence maps to one class by soluble fraction (log2). Which class for HMQASISVDEAKSIALNYAKFTADQVVYTKSELDYDDGRAEYEIEFYAGGKEYSFTIDAVSGTVLEMEI ?
upper band

Hi there! Could you help me figure out the category for HMGTSSAEIAAELRAQIFAGELRPGEMLPSAREITGTWNVAIATASRVHALLRSEGLATPVPGVGTVVAT please?
central band

Please classify: HMPVSRMRARHEALARGVMGIHAGGFSAVYGYRKVWHGLIGKGWDPGEVGRDQVMNIMRGLGMQGVRR
upper band
